Form field: mass density (one value per entry).
# CONDITIONS_USED: 298.15 K; 101 kPa; Liquid; Vibrating tube method
± gives the expanded uncertainty stated by the source.
# output: number + unit

COMPOUND: CO [methanol]
mass density: 786.66 ± 0.15 kg/m3
--
COMPOUND: CCC[N+]1(C)CCCC1.O=S(=O)([N-]S(=O)(=O)C(F)(F)F)C(F)(F)F
mass density: 1427.86 ± 0.6 kg/m3
--
COMPOUND: CCO [ethanol]
mass density: 785.48 ± 0.15 kg/m3

In plain terms, CCCO [propan-1-ol] has a documented mass density of 799.87 ± 0.14 kg/m3

====

# CONDITIONS_USED: 308.15 K; 101 kPa; Liquid; Vibrating tube method
Numbers after ± are expanded uncertainties.
ENDPOINT: mass density

COMPOUND_STRING: CCCO
mass density: 791.78 ± 0.15 kg/m3

COMPOUND_STRING: CCO
mass density: 776.81 ± 0.15 kg/m3

COMPOUND_STRING: CCC[N+]1(C)CCCC1.O=S(=O)([N-]S(=O)(=O)C(F)(F)F)C(F)(F)F
mass density: 1418.86 ± 0.59 kg/m3

The recorded mass density for entry CO equals 777.2 ± 0.15 kg/m3

====

# CONDITIONS_USED: 308.15 K; 101 kPa; Liquid; Sing-around technique in a fixed-path interferometer
ENDPOINT: speed of sound (m/s)
Respond with the bare value in m/s.

Example entries and their recorded answers appear below.
COMPOUND: CCCO [propan-1-ol]
ENDPOINT: speed of sound
REPORTED_MEASUREMENT: 1172.4
//
COMPOUND: CO [methanol]
ENDPOINT: speed of sound
REPORTED_MEASUREMENT: 1070.1
//
COMPOUND: CCC[N+]1(C)CCCC1.O=S(=O)([N-]S(=O)(=O)C(F)(F)F)C(F)(F)F
ENDPOINT: speed of sound
REPORTED_MEASUREMENT: 1249.1

Please fill in: speed of sound reported for CCO [ethanol] = 1111.8

====

# reported speed of sound; entries follow
# CONDITIONS_USED: 298.15 K; 101 kPa; Liquid; Sing-around technique in a fixed-path interferometer
Answer in m/s, number only, no unit symbol.

Example cases with answers are listed next.
COMPOUND_STRING: CCC[N+]1(C)CCCC1.O=S(=O)([N-]S(=O)(=O)C(F)(F)F)C(F)(F)F
speed of sound (m/s): 1270.6
--
COMPOUND_STRING: CO
speed of sound (m/s): 1102.7
--
COMPOUND_STRING: CCCO
speed of sound (m/s): 1206.6

The measured speed of sound associated with CCO reads 1143.9

====

# CONDITIONS_USED: 303.15 K; 101 kPa; Liquid; Sing-around technique in a fixed-path interferometer
Entries and their measured speed of sound follow.
Provide the reading as a plain figure in m/s.

COMPOUND: CO [methanol]
SCALE_UNIT: m/s
speed of sound: 1086.3
--
COMPOUND: CCCO [propan-1-ol]
SCALE_UNIT: m/s
speed of sound: 1189.5
--
COMPOUND: CCO [ethanol]
SCALE_UNIT: m/s
speed of sound: 1128

# evaluate next
Given item CCC[N+]1(C)CCCC1.O=S(=O)([N-]S(=O)(=O)C(F)(F)F)C(F)(F)F , the value recorded as its speed of sound is 1259

====

# CONDITIONS_USED: 303.15 K; 101 kPa; Liquid; Vibrating tube method
ENDPOINT: mass density (kg/m3)
Answer format: numeric, kg/m3 implied, no suffix.

MOLECULE: CCO [ethanol]
SCALE_UNIT: kg/m3
mass density: 781.16

mass density measured on CCC[N+]1(C)CCCC1.O=S(=O)([N-]S(=O)(=O)C(F)(F)F)C(F)(F)F = 1423.37

mass density measured on CCCO [propan-1-ol] = 795.94

mass density in this record for CO [methanol] : 781.95
